src = the supplement of paper PMC10126150

Each item that follows carries a reported switch fluorescence ratio.
- Tested on: ATP;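 note: ATP exposure 15 min at 22 °C before imaging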
- MEASUREMENT DESCRIPTION: switch fluorescence ratio, 500 uM ATP over buffer (Cy3 cluster intensity, sum of 5 cycles each) (fold (ratio)); higher = stronger signal-on switching upon ATP binding; sequences stand for … in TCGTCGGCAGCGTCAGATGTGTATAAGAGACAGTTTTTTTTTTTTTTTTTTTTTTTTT…TC
- DETAILS: aptamer strand: ATP DNA aptamer (quencher-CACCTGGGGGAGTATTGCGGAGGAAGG + anchor), 100 nM annealed; ATP concentration: 500 uM
READOUT NAME: switch fluorescence ratio

[[record]]
seq_string = "CGGGTCTGTG"
measured_result = 0.999

[[record]]
seq_string = "TCTGTAGGTT"
measured_result = 1.03

[[record]]
seq_string = "AACAGTGTAT"
measured_result = 1.01

[[record]]
seq_string = "AGCTGATTGC"
measured_result = 1

[[record]]
seq_string = "TCATCCCTAT"
measured_result = 1.1

[[record]]
seq_string = "CTATACGGAG"
measured_result = 1.09

[[record]]
seq_string = "GATGTCTATC"
measured_result = 1.01

[[record]]
seq_string = "GTGGTTGTTT"
measured_result = 1.01

[[record]]
seq_string = "GGATGAACGG"
measured_result = 1.01

[[record]]
seq_string = "AAATTTTTCT"
measured_result = 1.05

[[record]]
seq_string = "TCATTTATTA"
measured_result = 1.04

[[record]]
seq_string = "AAGTTTTAGG"
measured_result = 0.988

[[record]]
seq_string = "TTTTGTGCTG"
measured_result = 0.984

[[record]]
seq_string = "GTTATATCGC"
measured_result = 0.985

[[record]]
seq_string = "GGTTTCGCCA"
measured_result = 0.981

[[record]]
seq_string = "AGTTTGAGGA"
measured_result = 1.01

[[record]]
seq_string = "ATCTAGGGGG"
measured_result = 1.05

[[record]]
seq_string = "TGGTTAGCG"
measured_result = 1.04

[[record]]
seq_string = "CTATAAAGTT"
measured_result = 0.979

[[record]]
seq_string = "TTGGAGAGGG"
measured_result = 1.06

[[record]]
seq_string = "GCCGGGAGGG"
measured_result = 0.985

